- System: VLA-4 receptor (Homo sapiens, UniProt P05556+P13612)
- Construct: inflammatory cells that contain the VLA-4 receptor [Jurkat cells; host or cells: Jurkat cells (human T lymphoblastic line)
- Sequence (P13612 34-1032): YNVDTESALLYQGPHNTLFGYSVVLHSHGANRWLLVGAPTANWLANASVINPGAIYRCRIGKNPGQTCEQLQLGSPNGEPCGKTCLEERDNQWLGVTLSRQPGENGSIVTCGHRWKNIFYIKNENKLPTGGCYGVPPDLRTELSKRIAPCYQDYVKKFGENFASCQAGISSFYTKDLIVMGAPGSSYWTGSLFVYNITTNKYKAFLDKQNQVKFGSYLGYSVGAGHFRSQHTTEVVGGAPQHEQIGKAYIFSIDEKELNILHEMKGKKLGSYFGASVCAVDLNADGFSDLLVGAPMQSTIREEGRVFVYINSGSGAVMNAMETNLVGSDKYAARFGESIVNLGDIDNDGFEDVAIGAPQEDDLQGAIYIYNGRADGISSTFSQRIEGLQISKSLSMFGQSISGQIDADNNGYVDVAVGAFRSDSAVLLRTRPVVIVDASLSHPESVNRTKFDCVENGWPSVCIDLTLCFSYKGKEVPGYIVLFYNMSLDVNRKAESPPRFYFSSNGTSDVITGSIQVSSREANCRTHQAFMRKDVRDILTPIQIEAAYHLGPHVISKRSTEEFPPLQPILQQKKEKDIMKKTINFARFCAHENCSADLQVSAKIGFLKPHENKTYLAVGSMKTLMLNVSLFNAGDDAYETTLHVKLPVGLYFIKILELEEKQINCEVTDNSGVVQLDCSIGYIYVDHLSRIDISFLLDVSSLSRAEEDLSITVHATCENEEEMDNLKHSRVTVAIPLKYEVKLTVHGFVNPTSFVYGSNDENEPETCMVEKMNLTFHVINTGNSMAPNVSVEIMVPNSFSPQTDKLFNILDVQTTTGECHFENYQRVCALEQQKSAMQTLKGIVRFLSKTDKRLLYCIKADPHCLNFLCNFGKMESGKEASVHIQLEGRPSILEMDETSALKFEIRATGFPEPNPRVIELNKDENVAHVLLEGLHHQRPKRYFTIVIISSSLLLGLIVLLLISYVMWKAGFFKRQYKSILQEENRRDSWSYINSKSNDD
- Sequence (P05556 21-798): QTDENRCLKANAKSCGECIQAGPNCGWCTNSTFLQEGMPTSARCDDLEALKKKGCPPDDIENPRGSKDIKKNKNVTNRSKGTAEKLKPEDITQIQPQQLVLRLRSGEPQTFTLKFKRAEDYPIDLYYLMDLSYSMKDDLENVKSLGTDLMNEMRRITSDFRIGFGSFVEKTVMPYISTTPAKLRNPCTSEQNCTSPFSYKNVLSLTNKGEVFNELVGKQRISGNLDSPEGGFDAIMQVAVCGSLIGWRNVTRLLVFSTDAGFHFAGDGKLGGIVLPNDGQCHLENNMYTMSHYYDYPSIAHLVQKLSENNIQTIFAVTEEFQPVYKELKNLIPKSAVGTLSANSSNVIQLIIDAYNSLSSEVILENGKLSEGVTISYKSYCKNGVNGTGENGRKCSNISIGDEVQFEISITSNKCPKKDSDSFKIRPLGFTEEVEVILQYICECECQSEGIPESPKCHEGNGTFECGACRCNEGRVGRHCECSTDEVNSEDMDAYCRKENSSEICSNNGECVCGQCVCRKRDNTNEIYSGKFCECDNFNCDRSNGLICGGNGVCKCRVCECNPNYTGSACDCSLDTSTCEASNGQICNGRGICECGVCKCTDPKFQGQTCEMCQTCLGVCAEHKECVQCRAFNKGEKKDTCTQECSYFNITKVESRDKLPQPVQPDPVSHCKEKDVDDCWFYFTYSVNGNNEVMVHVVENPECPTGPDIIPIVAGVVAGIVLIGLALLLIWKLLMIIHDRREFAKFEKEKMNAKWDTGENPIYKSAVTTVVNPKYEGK
- Test protocol: In vitro binding assay: inhibition of binding of 51Cr-labeled Jurkat cells to solid phase-bound CS-1 compound (SEQ ID NO:1)
- Type: cell-based
- Reported conditions: prodrug compounds, potency before enzymatic conversion to active form; relative to SEQ ID NO:3 = 1
Square brackets hold non-standard residues; d marks the D form. Peptide text beside a SMILES is read from it. * marks the point of attachment. X8 = CCCCCCCCCCCCCCCCCCO*; PhAc = O=C(Cc1ccccc1)*; ODecyl = CCCCCCCCCCO*
Recorded Relative Potency values for a group of compounds are listed next.
API note: the answer field is a bare number with no unit suffix.

Requested read-out: Relative Potency. Entry: CCCCCCCCCCCCCCCCCCOC(=O)C[C@H](NC(=O)[C@H](CC(C)C)NC(=O)Cc1ccccc1)C(=O)N[C@@H](Cc1ccccc1)C(=O)N1CCC[C@@H]1C(N)=O [1068.12] (PhAc-LD(X8)F[dP]-NH2)
0

Please turn your attention to the following entry.
Requested read-out: Relative Potency. Entry: CCCCCCCCCCOC(=O)C[C@H](NC(=O)[C@H](CC(C)C)NC(=O)Cc1ccccc1)C(=O)N[C@@H](Cc1ccccc1)C(=O)N1CCC[C@@H]1C(N)=O [1068.09] (PhAc-LD(ODecyl)F[dP]-NH2)
0
